Target: thrombin (Bos taurus, UniProt P00735)
Construct: clotting of bovine fibrinogen
Test: fibrinogen coagulation time
Assay type: biochemical
Conditions: bovine fibrinogen, thrombin 5 units/ml, borate saline buffer pH 7.4, 25° C; normal coagulation time 50-55 seconds to 100-110 seconds; read-out: Concentration required to prolong the coagulation time by a factor of two
Each record here notes measured IC (2-fold clotting time).
Only the number, expressed in µM, is required.

molecule="COc1ccc2cc(S(=O)(=O)N[C@@H](CCCNC(=N)N)C(=O)N3CCCCC3C(=O)O)ccc2c1 (stereo partly drawn) [Sample 4]" parameter_measured="IC (2-fold clotting time)" value_units=µM reported_value=3
molecule="COc1cc2ccc(S(=O)(=O)N[C@@H](CCCNC(=N)N)C(=O)N3CCC(c4ccccc4)CC3C(=O)O)cc2cc1OC (stereo partly drawn) [Sample 30]" parameter_measured="IC (2-fold clotting time)" value_units=µM reported_value=12
molecule="COc1ccc2cc(S(=O)(=O)N[C@@H](CCCNC(=N)N)C(=O)N3CCC(C)CC3C(=O)O)cc(OC)c2c1 (stereo partly drawn) [Sample 11]" parameter_measured="IC (2-fold clotting time)" value_units=µM reported_value=0.35
molecule="COc1cc2ccc(S(=O)(=O)N[C@@H](CCCNC(=N)N)C(=O)N3CCC(C)CC3C(=O)O)cc2cc1OC (stereo partly drawn) [Sample 5]" parameter_measured="IC (2-fold clotting time)" value_units=µM reported_value=0.4
molecule="CCCC1CCN(C(=O)[C@H](CCCNC(=N)N)NS(=O)(=O)c2ccc3cc(OC)c(OC)cc3c2)C(C(=O)O)C1 (stereo partly drawn) [Sample 19]" parameter_measured="IC (2-fold clotting time)" value_units=µM reported_value=0.5

Next molecule, IC (2-fold clotting time) to be filled in.
Task item: Look at this molecule and give its reported IC (2-fold clotting time). COc1ccc2ccc(S(=O)(=O)N[C@@H](CCCNC(=N)N)C(=O)N3CCC(C)CC3C(=O)O)cc2c1 (stereo partly drawn) [Sample 7]
Reply: 0.15
